- Target under test: HIS-TGFβR1 T204D (Homo sapiens (Human), UniProt P36897, T204D)
- Sequence (P36897 34-503 T204D): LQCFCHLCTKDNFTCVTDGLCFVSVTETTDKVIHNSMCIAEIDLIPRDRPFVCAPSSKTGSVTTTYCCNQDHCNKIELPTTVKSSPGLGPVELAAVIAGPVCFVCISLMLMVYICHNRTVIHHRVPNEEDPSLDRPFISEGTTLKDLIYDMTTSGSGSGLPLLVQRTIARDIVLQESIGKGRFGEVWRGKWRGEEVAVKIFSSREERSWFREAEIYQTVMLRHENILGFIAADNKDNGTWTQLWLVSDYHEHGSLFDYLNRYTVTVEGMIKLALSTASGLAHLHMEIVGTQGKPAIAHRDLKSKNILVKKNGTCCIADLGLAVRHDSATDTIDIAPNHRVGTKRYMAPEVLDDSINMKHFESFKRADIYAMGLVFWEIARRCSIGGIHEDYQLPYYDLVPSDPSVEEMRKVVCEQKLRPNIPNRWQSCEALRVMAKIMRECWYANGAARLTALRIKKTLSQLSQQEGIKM
- Assay protocol: HTRF probe displacement assay, HIS-TGFβR1 T204D
- Experimental setup: 1 nM HIS-TGFβR1 T204D, 1 hour at room temperature, read-out: TGFBR1T204D IC50
pIC50: −log10 of the molar value.

Smiles str: Cc1nc(-c2ncccc2-c2ccc3[nH]ncc3c2)ccc1F
Target under test: HIS-TGFβR1 T204D (Homo sapiens (Human), UniProt P36897, T204D)
pIC50: 8.70
//
Smiles str: Cc1cccc(-c2ncccc2-c2ccc3nccnc3c2)n1
Target under test: HIS-TGFβR1 T204D (Homo sapiens (Human), UniProt P36897, T204D)
pIC50: 8.05
//
Smiles str: Cc1cccc(-c2ncc(F)cc2-c2ccc3ncc(C#N)n3c2)n1
Target under test: HIS-TGFβR1 T204D (Homo sapiens (Human), UniProt P36897, T204D)
pIC50: 7.80
//
Smiles str: O=C(O)c1cnn2ccc(-c3cccnc3-c3cccc(C(F)(F)F)n3)nc12
Target under test: HIS-TGFβR1 T204D (Homo sapiens (Human), UniProt P36897, T204D)
pIC50: 6.86
//
Smiles str: N#Cc1cnc2ccc(-c3cccnc3-c3ccc(F)cn3)nn12
Target under test: HIS-TGFβR1 T204D (Homo sapiens (Human), UniProt P36897, T204D)
pIC50: 6.22
//
Smiles str: COc1cccc(-c2ncccc2-c2ccc3ncc(C(N)=O)n3n2)n1
Target under test: HIS-TGFβR1 T204D (Homo sapiens (Human), UniProt P36897, T204D)
pIC50: 7.68
//
Smiles str: NC(=O)c1cnc2ccc(-c3cccnc3-c3cccc(C(F)F)n3)nn12
Target under test: HIS-TGFβR1 T204D (Homo sapiens (Human), UniProt P36897, T204D)
pIC50: 7.52
//
Smiles str: Cc1cccc(-c2ncc(N)cc2-c2ccc3ncc(C(N)=O)n3c2)n1
Target under test: HIS-TGFβR1 T204D (Homo sapiens (Human), UniProt P36897, T204D)
pIC50: 8.70
//
Smiles str: CC(=O)Nc1cnc(-c2cccc(C)n2)c(-c2ccc3ncc(C(N)=O)n3c2)c1
Target under test: HIS-TGFβR1 T204D (Homo sapiens (Human), UniProt P36897, T204D)
pIC50: 8.30
